Test system: MS2 coat protein
Experiment Description: apparent KD of MS2 coat protein; higher = weaker reporter binding
Measurement Parameters: Eterna round: R107; input ligand: theophylline 2 mM
Property Measured: apparent KD of MS2 coat protein (nM)
Could you give me the number in nM? Just the number is fine.

Recorded apparent KD of MS2 coat protein, per entry:
Monomer Sequence	apparent KD of MS2 coat protein [nM]
GUCGGUACGUCGGCAAAGCCGAUGUGCCAGCGAGGACCGGUACGGCCGCCACUCGUACAUGAGGAUCACCCAUGUCCGGUCCGGC [Omei Trp SS A C v2]	92.4
AUGUCGUUGAAUAUAGCGGCUUGGUGUGAUACCAGAAUGAUCUAAUUCCCUUGGCAGCAUUACAUGAGGAUCACCCAUGUUCCAG [SSTheo A #21]	57.3

Identify the measured apparent KD of MS2 coat protein of GGUGGCGGGACUGAUACCAGCCACCACCGAUAGACCACAUGAGGAUCACCCAUGUUGGGUGGCCCUUGGCAGCAGUCUUGCGGCG [#1 Same State - Theophylline B Attempt #15 (HarryS)] for MS2 coat protein.
81.5

Identify the measured apparent KD of MS2 coat protein of GCGAUGGAGCGAAGGAGCGUGCUAGUACAUGAGGAUCACCCAUGUGAGUCGCAUCGCUAAGCACAGGUAGGUCGCGCUCCAUCGC [EAB NP+V+V2 #9] for MS2 coat protein.
145

Identify the measured apparent KD of MS2 coat protein of CACAUGAGGAUCACCCAUGUGUAAUAUGAAGGAGCGUCGGAAAUGACAGGUAGGUCGCAUGAAAUGCAAGUGUGUGAGGUUGUGA [EAA NP+V+V2 #12] for MS2 coat protein.
10.5

Identify the measured apparent KD of MS2 coat protein of GCACAAGAUGGAAGGAGCGCUGGUAAAGGUCACAUGAGGAUCACCCAUGUGCUCCUUGCCGAGCAGGUAGGUCGCCAUCUUGUGC [SSAB NP+V+V2 #3] for MS2 coat protein.
13.3

====

System: MS2 coat protein
Experiment Description: apparent KD of MS2 coat protein; higher = weaker reporter binding
Measurement Parameters: Eterna round: R107; input ligand: tryptophan 2.4 mM
Property Measured: apparent KD of MS2 coat protein (nM)
Could you give me the number in nM? Just the number is fine.

Recorded apparent KD of MS2 coat protein, per entry:
Monomer Sequence	apparent KD of MS2 coat protein [nM]
GUAGGUCACCUCAUGAGACCUACCCUGGAAGGAGCGAGCGAAAGCUCAGGUAGGUCGCCAGAAACAUGAGGAUCACCCAUGUAAU [(A)''-(M)'-(A)'-(Arg1)-(Arg2)-(M1)-(M2)_Design3]	44.6
AUCCACAGCCGAAGGAGCGCAGUAGGAUGACAUGAGGAUCACCCAUGUGUGUGAUGUGGAUUGCAGGUAGGUCGCGGAGUGGGUU [Exclusion - Arginine B (Freestyle 8)]	72.6
CCCAUACAUGAGGAUCACCCAUGUGUUGAUACCAGCAUAUGUAGAUGCCCUUGGCAGCAAGCUUGGGUCACUGGAAAACAUCUAA [theeternabot_sameState_MS2_Theo_A_38]	22.6
CUGACGUAGGAAGAUAUCUGGAACAAGGAUACCAGUAAACCAACAUACCCUUGGCAGCCUAAAACAUGAGGAUCACCCAUGUAAU [theeternabot_exclusion_MS2_Theo_A_26]	13.7
UAAAACAUGAGGAUCACCCAUGUAAAAGAUACCAGAGUGAUGAUCCUCCCUUGGCAGCUUAACGCUGAUUGAUUACAAUCAGCGA [Mat - Same State Theophlline A - Mod of Eli - D21]	53.3
UCACAUGAGGAUCACCCAUGUCCAGGUGAAGGAGCGAUUAGGGAGUCAGGUAGGUCGCACCACAUGAGGAUCACCCAUGUGCCUG [EAA NP+V+V2 #8 DOUBLE]	24.1
AGCUCAUAGAGUGAUACCAGACUACAUGAGGAUCACCCAUGUUACUUUUAAAUAUCAUUUGUCCCUUGGCAGCACAUGAAGAGCA [JR_Nu_ExcTheophyB_Sub017]	13.8
ACAUGAGGAUCACCCAUGUACUGGAUCUAACGAGGACCGGUACGGCCGCCACUCGAAGAUAGGACUAUGGAAACAUAGCUUAUCA [Design 1]	14.6

Param item = ACUGGACAUGAGGAUCACCCAUGUGGCGAUACCAGUUUCAGCGGGAACCCUUGGCAGCGCGGUGCCGGCCAUAGAAGUUCUGGGA [theeternabot_sameState_MS2_Theo_A_39] ; retrieve measured apparent KD of MS2 coat protein.
40.6

Param item = UCGCCCAGGAUGGAAUCCUGGGAUAUGGAAGGAGCGCUGAUGCCAGCAGGUAGGUCGCCAACGGACAUGAGGAUCACCCAUGUAC [Same State - Arginine A (Freestyle 9)] ; retrieve measured apparent KD of MS2 coat protein.
18.6

Param item = UCAGCACAUGAGGAUCACCCAUGUCGUGAUACCAGCCUGUGCGAAGGCCCUUGGCAGCACAGUCCCGAUUUGCUUAUAUGCACUU [theeternabot_sameState_MS2_Theo_A_48] ; retrieve measured apparent KD of MS2 coat protein.
34.4

Origin of values: the supplement of paper PMC9170038
